The measured values listed here are drawn from paper PMC7413516.

assay: Pharmacokinetic study in mice, plasma and brain structures, LC/MS/MS; assay type: in vivo, Swiss albino mice; conditions: Swiss albino, mouse, hippocampus, ip, 1.25 mg/kg, 1.25 mg/kg i.p., 240 min, read-out: Concentration, hippocampus (Mean)
measured_property: concentration at 240 min
State the result as a value with its unit after it.

Returns the measured concentration at 240 min for the input compound. Input: Cn1c(=O)c2c(nc3n(CCCCN4CCN(c5cccc(C(F)(F)F)c5)CC4)ccn23)n(C)c1=O
0.0196 µg/mL

* * *

test: Pharmacokinetic study in mice, plasma and brain structures, LC/MS/MS; format: in vivo, Swiss albino mice; conditions: Swiss albino, mouse, frontal cortex, ip, 1.25 mg/kg i.p., read-out: AUC0→t, frontal cortex (converted)
measured_property: AUC(0-t) (ng·h/mL)
Just the number in ng·h/mL, nothing appended.

For the molecule Cn1c(=O)c2c(nc3n(CCCCN4CCN(c5cccc(C(F)(F)F)c5)CC4)ccn23)n(C)c1=O , what AUC(0-t) is on record?
363

* * *

assay: Pharmacokinetic study in mice, plasma and brain structures, LC/MS/MS; format: in vivo, Swiss albino mice; conditions: Swiss albino, mouse, plasma, ip, 0.625 mg/kg, 0.625 mg/kg i.p., 120 min, read-out: Concentration, plasma (individual animals)
measured_property: concentration at 120 min (ng/mL)
Answer format: numeric, ng/mL implied, no suffix.

State the recorded concentration at 120 min for this entry: Cn1c(=O)c2c(nc3n(CCCCN4CCN(c5ccccc5F)CC4)ccn23)n(C)c1=O
3.22

* * *

assay: Pharmacokinetic study in mice, plasma and brain structures, LC/MS/MS; type: in vivo, Swiss albino mice; settings: Swiss albino, mouse, hippocampus, ip, 0.625 mg/kg, 0.625 mg/kg i.p., 5 min, read-out: Concentration, hippocampus (individual animals)
measured_property: concentration at 5 min (µg/mL)
Could you give me the number in µg/mL? Just the number is fine.

Entry Cn1c(=O)c2c(nc3n(CCCCN4CCN(c5ccccc5F)CC4)ccn23)n(C)c1=O has what concentration at 5 min?
0.205

* * *

test: Pharmacokinetic study in mice, plasma and brain structures, LC/MS/MS; format: in vivo, Swiss albino mice; settings: Swiss albino, mouse, frontal cortex, ip, 1.25 mg/kg, 1.25 mg/kg i.p., 60 min, read-out: Concentration, frontal cortex (Mean)
measured_property: concentration at 60 min (ng/mL)
Answer in ng/mL, number only, no unit symbol.

// returns reported concentration at 60 min for input Cn1c(=O)c2c(nc3n(CCCCN4CCN(c5cccc(C(F)(F)F)c5)CC4)ccn23)n(C)c1=O
95.8

* * *

assay: Pharmacokinetic study in mice, plasma and brain structures, LC/MS/MS; format: in vivo, Swiss albino mice; conditions: Swiss albino, mouse, hippocampus, ip, 1.25 mg/kg, 1.25 mg/kg i.p., 240 min, read-out: Concentration, hippocampus (individual animals)
measured_property: concentration at 240 min (ng/mL)
Response body: numeric value in ng/mL, unit text excluded.

Returns the measured concentration at 240 min for the input molecule. Input: Cn1c(=O)c2c(nc3n(CCCCN4CCN(c5cccc(C(F)(F)F)c5)CC4)ccn23)n(C)c1=O
18.2

* * *

assay: Pharmacokinetic study in mice, plasma and brain structures, LC/MS/MS; assay type: in vivo, Swiss albino mice; conditions: Swiss albino, mouse, plasma, ip, 1.25 mg/kg, 1.25 mg/kg i.p., 5 min, read-out: Concentration, plasma (Mean)
measured_property: concentration at 5 min (ng/mL)
Kindly provide the numeric value in ng/mL only, without the unit symbol.

I am curious: what concentration at 5 min value has been reported for Cn1c(=O)c2c(nc3n(CCCCN4CCN(c5cccc(C(F)(F)F)c5)CC4)ccn23)n(C)c1=O [AZ-861] ?
59.8

* * *

assay: Pharmacokinetic study in mice, plasma and brain structures, LC/MS/MS; format: in vivo, Swiss albino mice; settings: Swiss albino, mouse, frontal cortex, ip, 0.625 mg/kg, 0.625 mg/kg i.p., 240 min, read-out: Concentration, frontal cortex (Mean)
measured_property: concentration at 240 min (ng/mL)
Your answer is read as ng/mL, so omit the unit and give the number.

Which concentration at 240 min value is on record for Cn1c(=O)c2c(nc3n(CCCCN4CCN(c5ccccc5F)CC4)ccn23)n(C)c1=O ?
23.3

* * *

experiment: Pharmacokinetic study in mice, plasma and brain structures, LC/MS/MS; type: in vivo, Swiss albino mice; details: Swiss albino, mouse, frontal cortex, ip, 0.625 mg/kg, 0.625 mg/kg i.p., 120 min, read-out: Concentration, frontal cortex (individual animals)
measured_property: concentration at 120 min (µg/mL)
Could you give me the number in µg/mL? Just the number is fine.

Which concentration at 120 min value is on record for Cn1c(=O)c2c(nc3n(CCCCN4CCN(c5ccccc5F)CC4)ccn23)n(C)c1=O ?
0.0222

* * *

assay: Pharmacokinetic study in mice, plasma and brain structures, LC/MS/MS; type: in vivo, Swiss albino mice; conditions: Swiss albino, mouse, hippocampus, ip, 1.25 mg/kg, 1.25 mg/kg i.p., 15 min, read-out: Concentration, hippocampus (Mean)
measured_property: concentration at 15 min (ng/mL)
Expressed in ng/mL, but write only the number.

Look at this molecule and give its reported concentration at 15 min. Cn1c(=O)c2c(nc3n(CCCCN4CCN(c5cccc(C(F)(F)F)c5)CC4)ccn23)n(C)c1=O [AZ-861]
307

* * *

assay: Pharmacokinetic study in mice, plasma and brain structures, LC/MS/MS; assay type: in vivo, Swiss albino mice; details: Swiss albino, mouse, striatum, ip, 1.25 mg/kg, 1.25 mg/kg i.p., 15 min, read-out: Concentration, striatum (Mean)
measured_property: concentration at 15 min (ng/mL)
Give just the number in ng/mL; leave the unit off.

Fill in the blank: the reported concentration at 15 min of Cn1c(=O)c2c(nc3n(CCCCN4CCN(c5cccc(C(F)(F)F)c5)CC4)ccn23)n(C)c1=O is ____.
334

* * *

experiment: Pharmacokinetic study in mice, plasma and brain structures, LC/MS/MS; format: in vivo, Swiss albino mice; conditions: Swiss albino, mouse, frontal cortex, ip, 1.25 mg/kg, 1.25 mg/kg i.p., 15 min, read-out: Concentration, frontal cortex (individual animals)
measured_property: concentration at 15 min (ng/mL)
Give the value in ng/mL but do not write ng/mL after it.

Given the entry Cn1c(=O)c2c(nc3n(CCCCN4CCN(c5cccc(C(F)(F)F)c5)CC4)ccn23)n(C)c1=O [AZ-861] , report its measured concentration at 15 min.
233

* * *

test: Pharmacokinetic study in mice, plasma and brain structures, LC/MS/MS; type: in vivo, Swiss albino mice; conditions: Swiss albino, mouse, striatum, ip, 0.625 mg/kg i.p., read-out: MRT, striatum (converted)
measured_property: MRT (min)
Reply numerically in min, unit not repeated.

Looking for the measured MRT of Cn1c(=O)c2c(nc3n(CCCCN4CCN(c5ccccc5F)CC4)ccn23)n(C)c1=O [AZ-853] , can you help?
56.3

* * *

assay: Pharmacokinetic study in mice, plasma and brain structures, LC/MS/MS; type: in vivo, Swiss albino mice; conditions: Swiss albino, mouse, striatum, ip, 1.25 mg/kg, 1.25 mg/kg i.p., 480 min, read-out: Concentration, striatum (Mean)
measured_property: concentration at 480 min (ng/mL)
// units = ng/mL; emit number, no label

GET /values?readout=concentration at 480 min&item= Cn1c(=O)c2c(nc3n(CCCCN4CCN(c5cccc(C(F)(F)F)c5)CC4)ccn23)n(C)c1=O [AZ-861]
1.86

* * *

assay: Pharmacokinetic study in mice, plasma and brain structures, LC/MS/MS; type: in vivo, Swiss albino mice; conditions: Swiss albino, mouse, frontal cortex, ip, 1.25 mg/kg, 1.25 mg/kg i.p., 15 min, read-out: Concentration, frontal cortex (Mean)
measured_property: concentration at 15 min (ng/mL)
Give your result in ng/mL as a bare value.

# concentration at 15 min lookup, item Cn1c(=O)c2c(nc3n(CCCCN4CCN(c5cccc(C(F)(F)F)c5)CC4)ccn23)n(C)c1=O [AZ-861]
251

* * *

assay: Pharmacokinetic study in mice, plasma and brain structures, LC/MS/MS; type: in vivo, Swiss albino mice; settings: Swiss albino, mouse, plasma, ip, 0.625 mg/kg, 0.625 mg/kg i.p., 15 min, read-out: Concentration, plasma (Mean)
measured_property: concentration at 15 min (ng/mL)
Write it as a number; the unit ng/mL goes unstated.

Param item = Cn1c(=O)c2c(nc3n(CCCCN4CCN(c5ccccc5F)CC4)ccn23)n(C)c1=O ; retrieve measured concentration at 15 min.
13.4

* * *

assay: Pharmacokinetic study in mice, plasma and brain structures, LC/MS/MS; type: in vivo, Swiss albino mice; conditions: Swiss albino, mouse, frontal cortex, ip, 0.625 mg/kg, 0.625 mg/kg i.p., 30 min, read-out: Concentration, frontal cortex (Mean)
measured_property: concentration at 30 min (ng/mL)
Unit ng/mL implied. Number only.

Quick check: concentration at 30 min of Cn1c(=O)c2c(nc3n(CCCCN4CCN(c5ccccc5F)CC4)ccn23)n(C)c1=O ?
156
